# SYSTEM_TESTED: T1, Extracellular domain of cyno PD1 (cPD1-ECD) (Macaca fascicularis (cynomolgus))
# T1 construct: Expressed with a hexahistidine tag or as Fc fusion; also called cynoPD1-ECD; cynoPD-1-ECD
# T1 chain: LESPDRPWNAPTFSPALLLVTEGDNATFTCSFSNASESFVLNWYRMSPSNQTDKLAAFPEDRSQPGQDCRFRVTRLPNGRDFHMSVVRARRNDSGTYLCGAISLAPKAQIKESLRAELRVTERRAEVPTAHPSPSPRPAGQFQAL
# MEASUREMENT_PROTOCOL: SPR ProteOn, captured mAb, cynoPD1-ECD analyte;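 note: ProteOn XPR36 SPR with antibodies held by anti-IgG Fc on a GLC chip, on-rate, off-rate and KD derived from a Langmuir one-to-one fit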
Exercise: for every item that follows, state its recorded koff.
The reply should contain only the number, in s⁻¹.

Query block: Reported koff, binder PD1B114 (antibody, human IgG2, kappa, V domains shown, IgG2sigma/kappa; also called PD1H24/PH9L3) VH: QVQLVQSGAEVKKPGSSVKVSCKASGGTFSSYAISWVRQAPGQGLEWMGGIIPIFGTANYAQKFQGRVTITADESTSTAYMELSSLRSEDTAVYYCARPGLAAAYDTGNLDYWGQGTLVTVSS VL: EIVLTQSPATLSLSPGERATLSCRASQSVSSYLAWYQQKPGQAPRLLIYDASNRATGIPARFSGSGSGTDFTLTISSLEPEDFAVYYCQQRSNWPLTFGQGTKVEIKR : ____
Result block: 0.0239

Query block: Param item: PD1B70 (antibody, V domains shown, Tested as IgG2sigma/kappa; also called PD1H107/PH9L3) VH: QVQLVQSGAEVKKPGSSVKVSCKASGGTFSSYAISWVRQAPGQGLEWMGGIIPIFGTANYAQKFQGRVTITADESTSTAYMELSSLRSEDTAVYYCARGYVRATGMLDYWGQGTLVTVSS VL: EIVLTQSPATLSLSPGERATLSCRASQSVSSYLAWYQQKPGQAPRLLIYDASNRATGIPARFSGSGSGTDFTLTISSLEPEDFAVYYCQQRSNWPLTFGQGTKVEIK
Result block: 0.0258
